Test: amyloid nucleation score (Sup35N fusion, yeast selection) (log enrichment); library NNK2; higher = more nucleation; inactive = no reads after selection;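 note: zero at mode of non-aggregating sequences after 7 days selection at 30°C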
Decision: amyloid nucleation score >= 0.7 yields Condition met, all other cases yield Condition not met.

Worked set:
{"columns": ["seq string", "category label"],
 "data": [
  ["GAFIMWYTGWVPHVDSGCCL", "Condition not met"],
  ["GLLLGMVFFCGSSTTNMGGI", "Condition met"],
  ["LFTVWVASVVWSCADVA", "Condition not met"],
  ["NWGAWLNWFNLVIYGCRVIN", "Condition met"],
  ["LCARALLH", "Condition met"]
]}

Now examine the next entry.
Hi team, for FSFYECLRGFFSNVDARCQV , is the recorded amyloid nucleation score at or above 0.7?
Condition met

----------
Assay: amyloid nucleation score (Sup35N fusion, yeast selection) (log enrichment); library NNK2; higher = more nucleation; inactive = no reads after selection
Assign 1 whenever amyloid nucleation score does not fall below 0.4; assign 0 whenever it does.

Some entries whose results are on file:
{"columns": ["seq string", "category label"],
 "data": [
  ["MWLGLTRRMVITSCYN", 1],
  ["MAILYVVGWFVP", 0],
  ["KSPPFMGSAERVSRRNGRGL", 0]
]}

Dear colleague, could you confirm whether GWFGARRGMSIYRVHNWFVF has amyloid nucleation score at or above 0.4?
1

----------
Assay: amyloid nucleation score (Sup35N fusion, yeast selection) (log enrichment); library NNK2; higher = more nucleation; inactive = no reads after selection
attribute measured: amyloid nucleation score
Lab note: record the figure alone, no unit after it.

Past entries and their recorded results:
{"columns": ["seq string", "val"],
 "data": [
  ["TPMFHILLYFLNWCYCILVA", 0.165],
  ["CKSQLHLRVRTRKNVCVVIS", 0.13]
]}

Name the recorded amyloid nucleation score for SNFPWPMERPEFSDDSVFWA .
-0.313

Consider next the sequence KAANVAEDSR in the same way.
0.978

KVMIVNRVIYTNRFNQGLTM ?
7.71

// same read-out, input: PSTIGRMVVLACWSDICRRG
8.88

Can you check FVYESIFLHRMSYNPIRWWV next?
0.112

----------
Experiment: amyloid nucleation score (Sup35N fusion, yeast selection) (log enrichment); library NNK1; higher = more nucleation; inactive = no reads after selection
Recorded amyloid nucleation score values for a group of substances are listed next.
Format: numeric value only, no unit, no commentary.

Form field: reported amyloid nucleation score of ILCKVPVVASSNGS
-0.35

Try this substance too: HLRRVMYLFAANCGPRPAND
-0.69

----------
Test: amyloid nucleation score (Sup35N fusion, yeast selection) (log enrichment); library NNK2; higher = more nucleation; inactive = no reads after selection
attribute measured: amyloid nucleation score
# print the numeric value only

Reference set, count: 5
{"columns": ["substance", "amyloid nucleation score"],
 "data": [
  ["YNKRVSWKYWMWHEYAMRGW", 5.21],
  ["NALADRRFTISPRIFAYLLL", 0.312],
  ["KWKLMCDAFLS", -0.969],
  ["NSLVLFFSVGVLRL", 1.37],
  ["FRVKRL", -1.19]
]}

Form field: reported amyloid nucleation score of CCILVSWFGIHSRCGVRCAR
0.877

Next substance: VSIFMQRR
2.76

----------
Experiment: amyloid nucleation score (Sup35N fusion, yeast selection) (log enrichment); library NNK1; higher = more nucleation; inactive = no reads after selection
attribute measured: amyloid nucleation score

{"columns": ["seq string", "amyloid nucleation score"],
 "data": [
  ["KRIDDYAKFRC", "inactive"],
  ["KENQSIRFWVD", "inactive"],
  ["LKGKTLVMSFFRSAKITVAH", "inactive"],
  ["TFFLVLVSPD", 0.059]
]}

# evaluate next
Entry TIYISVSNRSVDSKDMGYGS has what amyloid nucleation score?
inactive

----------
Experiment: amyloid nucleation score (Sup35N fusion, yeast selection) (log enrichment); library NNK3; higher = more nucleation; inactive = no reads after selection
attribute measured: amyloid nucleation score

{"columns": ["substance", "amyloid nucleation score"],
 "data": [
  ["LVGHEFTAGSNYDSDLGTV", "inactive"],
  ["HFVVKV", 1.27],
  ["TSKLVCPNGVMHLRDDRVGC", "inactive"],
  ["FMTIIKRWDVWNFCRSSGAV", "inactive"],
  ["LLIQNV", "inactive"],
  ["HVMGANREPF", "inactive"]
]}

What value of amyloid nucleation score has been reported for the following substance? WFDSAPSPLDLRVHLFNVKV
inactive

Now try VLRIFISWCSVQLSKRLWWT .
inactive

Also need FGNINLCMCFWKMEIECLTR , thanks.
inactive

Next substance up: IDVYLGLYMRRVSVLETHCS
2.02

Now this one: RDWLIMSLGVVLVWFLRYQY
inactive

Also, TWVILCKNSWFMLI please.
inactive

Field entry: NCPSWGGFGIATSGQR
inactive

Ok, now EFGVVVNEFYGDVY
inactive

Another: KGTLGCNSSSHVLIAVCNAM
inactive

Entry to check: MTAGEIDRLLYVS
inactive

Request: ADKWSHGAHDRVVLVLRVCR
inactive

Ok, now CIVYSFSRGFTSNGGEGYRW
0.67

Also WRYYRAYKVITHIKFLFFTE ?
inactive

----------
Test: amyloid nucleation score (Sup35N fusion, yeast selection) (log enrichment); library NNK3; higher = more nucleation; inactive = no reads after selection
attribute measured: amyloid nucleation score

{"columns": ["substance", "amyloid nucleation score"],
 "data": [
  ["MEGFSMIIRDAWKFTCVVEW", "inactive"],
  ["IEACSVSM", 0.059],
  ["TLISYFEG", "inactive"],
  ["GKIEDYCLVRESQAIPSLLQ", "inactive"],
  ["RCTGRLRTVGRSSMLEFEFV", "inactive"]
]}

For the substance TLNRLTKKHCFGNFWLYSAW , what amyloid nucleation score is on record?
inactive

Repeat with YDLGVAVLNRNSKRSC
inactive

Follow-up entry: SYSSIVCLGIDYRQAFWCIR
1.8

What about this substance? CVAYSRTEVRFYRYEHLWV
1.18

----------
Test: amyloid nucleation score (Sup35N fusion, yeast selection) (log enrichment); library NNK1; higher = more nucleation; inactive = no reads after selection
Reported amyloid nucleation score values follow for various substances
Respond using a number only.

{"columns": ["substance", "val"],
 "data": [
  ["WPRVGETSRVNLTTGIMS", -0.297]
]}

Next item in the queue.
For the substance shown here, HGAVLCC , give the reported amyloid nucleation score.
0.305

----------
Experiment: amyloid nucleation score (Sup35N fusion, yeast selection) (log enrichment); library NNK2; higher = more nucleation; inactive = no reads after selection
attribute measured: amyloid nucleation score

In the examples that follow, each entry is paired with its recorded amyloid nucleation score.
{"columns": ["seq string", "attribute measured", "val"],
 "data": [
  ["LELVCRPISMSGWSGYHTCR", "amyloid nucleation score", 0.983],
  ["VFWHMSIIHIVCRIILSKDW", "amyloid nucleation score", "inactive"],
  ["FESTAGTDKLRTEHLDPFAD", "amyloid nucleation score", "inactive"],
  ["TVGGNQTLSKLFWSFQGMFW", "amyloid nucleation score", "inactive"],
  ["LKNVCFCIWRISWNKISQKI", "amyloid nucleation score", "inactive"],
  ["KCRHFCRCETCTRYDPVHIL", "amyloid nucleation score", 1],
  ["YMLWGWFFLNGFYTVIGIVP", "amyloid nucleation score", "inactive"],
  ["FSMYSSSVWLDW", "amyloid nucleation score", "inactive"]
]}

Given CKAIFFLLDPPTFIYRGSSC , state its recorded amyloid nucleation score.
0.079

Same thing, different sequence: CISTLIGTRPTAYLLLLRDI
inactive

Repeat for the following sequence: FFWNAGCSELFGEGHYNSLL
inactive

Consider next the sequence PLGSNACPTHFSCD in the same way.
inactive

----------
Test: amyloid nucleation score (Sup35N fusion, yeast selection) (log enrichment); library NNK3; higher = more nucleation; inactive = no reads after selection
attribute measured: amyloid nucleation score

Take a look at these entries with their results.
{"columns": ["substance", "val"],
 "data": [
  ["VSACLNSGGQHSQRHANMAV", "inactive"],
  ["CMFNGGDWNHNVRELGRQSS", "inactive"],
  ["QTSMVVDDYCILYVLHWGWG", "inactive"],
  ["DYGLHDRTYTSIYRVA", "inactive"]
]}

What measured amyloid nucleation score goes with FPICWLRVVDLALFKWMYNF ?
inactive

Another substance to look at: EEVSVA
inactive

----------
Test: amyloid nucleation score (Sup35N fusion, yeast selection) (log enrichment); library NNK3; higher = more nucleation; inactive = no reads after selection
attribute measured: amyloid nucleation score

{"columns": ["substance", "val"],
 "data": [
  ["IRPWQLCMSKLSHIRRATPY", "inactive"],
  ["VFNKCVQFYFILGRNNEIWI", 2.56],
  ["WCFYKSLIACGHIVGIEPDW", 0.848],
  ["MNGNGRFLVERRMLGSKKSV", "inactive"],
  ["SSPRPLCPDLRLVDIIQILI", "inactive"]
]}

Given the substance GWRCCWIIWADAVYE , what is its reported amyloid nucleation score?
3.05

Would you mind doing RVIRHPAI as well?
-0.461

Lookup SKIFVNIDYVKVFRMICEWR
inactive

Repeat for the following substance: ISCTIVLRIVNYNAILVHTY
inactive

Same again, this time with NSLPCLGYGMFM
inactive

And then GDTVLVILSILSVGCC , what is it?
1.2

Same lookup for NGSNFFDCSQFLCSFGGDVV , please.
2.45

// repeat for ILQVFKIMFKRRGLSFHLGI and report
inactive

One more substance: TYKRIPYELTRSGTKPLYTP
inactive

Then what about the substance EYHKMTGIFAPLFILIMVV ?
inactive

# iterate: KKHIVY
inactive

Moving on to LNCMVITFVCFLVSNSIGGD
1.71

Now try LLHVVFNTFLYRLEPEYTSK .
inactive

Every entry's value here was drawn from the supplement of paper PMC12042874.
